Just for reference, the RNAGym collection of RNA variant scans (doi:10.1073/pnas.2313332121) is where these values come from.

Record form. Attribute: polymerase ribozyme fitness (log ratio). Fill in for each entry.
B1: TPR t1 (parent)
chain: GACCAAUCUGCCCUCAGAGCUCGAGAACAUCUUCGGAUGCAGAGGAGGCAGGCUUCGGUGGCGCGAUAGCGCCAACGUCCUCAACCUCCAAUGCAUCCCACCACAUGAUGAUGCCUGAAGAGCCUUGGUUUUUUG

# Variants of: B1
# assay-method-text: polymerase ribozyme fitness, log enrichment relative to wild type (log ratio); higher = more active; in vitro selection for triplet polymerase activity

Form: variant = G57A C64G U67G U81A A111U ; polymerase ribozyme fitness (log ratio) = -6.28

So for A43G C72G U132A G135C , the logged polymerase ribozyme fitness (log ratio) turned out to be -2.2

So, C64G C124A ? Its polymerase ribozyme fitness (log ratio) was -4.25

Documented polymerase ribozyme fitness (log ratio) of U33G C72A C85G A90G G120C U129G : -7.02

polymerase ribozyme fitness (log ratio) in this record for C11G C73G : -0.268

// recorded polymerase ribozyme fitness (log ratio) for C8U A27U : -1.79

Lab note: measured polymerase ribozyme fitness (log ratio) of G47A C53G C101U U131A was -1.26

Per the records, this variant ( U9G U14A G77U U92G C124U ) has polymerase ribozyme fitness (log ratio) equal to -3.63

Please fill in: polymerase ribozyme fitness (log ratio) reported for G10A A16C A50G A95C = -3.07

For C3A G39A A68G G128U the variant record lists polymerase ribozyme fitness (log ratio) as -4.5

For C64U A66G the variant record lists polymerase ribozyme fitness (log ratio) as -3.44

Entry C73A U78C A90C A91U U109G , polymerase ribozyme fitness (log ratio) reported as -7.04

Kindly note the recorded polymerase ribozyme fitness (log ratio) for C56A C72U U109G , which is -5.76

The variant identified as C13G G42U C49U G61U registered its polymerase ribozyme fitness (log ratio) at -3.55

// recorded polymerase ribozyme fitness (log ratio) for C3U A29G C53U G57C C86G : -4.64

The recorded polymerase ribozyme fitness (log ratio) for A41G G42U A75G A90U G128C U129A is -4.64

Record C12A C88U U109A C114A U133C . Reported polymerase ribozyme fitness (log ratio): -6.51

Form: variant = G10C A43G G44C C49U G52C C56G G77A ; polymerase ribozyme fitness (log ratio) = -6.25

// sample A24G G44U G61A A74U U133G , its polymerase ribozyme fitness (log ratio) was -3.56

// sample C88U G113U , its polymerase ribozyme fitness (log ratio) was -3.09

Recorded polymerase ribozyme fitness (log ratio) (variant A41U G57A ): -1.97

Note to self: polymerase ribozyme fitness (log ratio) recorded for G71C G117C was -4.7

For C11U C20A A29U G117U the variant record lists polymerase ribozyme fitness (log ratio) as -4.71

variant C70U C72G G77C , polymerase ribozyme fitness (log ratio) observed: -2.87

response.value for A2G G77A C80A C124A (field: polymerase ribozyme fitness (log ratio)) = -0.514

The reported polymerase ribozyme fitness (log ratio) of the variant G44U C82G was -1.77

The variant identified as U9G A18U C40U registered its polymerase ribozyme fitness (log ratio) at -0.788

The reported polymerase ribozyme fitness (log ratio) of the variant A16U C40A G51A U92C G113C U116C G117C was -6.65

Consider U54G C104G . Its measured polymerase ribozyme fitness (log ratio) is -7.42

The reported polymerase ribozyme fitness (log ratio) of the variant G17U G23U A74U C123G was -5.53

U116G has a reported polymerase ribozyme fitness (log ratio) of -1.95

Entry C99U U134C ; polymerase ribozyme fitness (log ratio) = -4.03

Looking up C62U C115G U129A , I found its polymerase ribozyme fitness (log ratio) recorded as -3.05
